Tested on: KRAS PDC multicell spheroid viability
Assay: Anticancer human tumor 521955-158-R6-J3-PDC patient-derived pancreatic carcinoma cell line growth inhibition [KRAS2]
Settings: second compound 0.316 µM; first compound 0.001 µM; active compounds read low
The following compounds are shown together with reported viability, T/C values.
Provide the reading as a plain figure in %.

Answered cases to consult:
Compound	Target or system	viability, T/C [%]
Cn1ncnc1[C@H]1c2n[nH]c(=O)c3cc(F)cc(c23)N[C@@H]1c1ccc(F)cc1 + CNCc1ccccc1-c1csc(C(C)Nc2nc(C)nc3cc(OC)c(OC)cc23)c1	KRAS PDC multicell spheroid viability	82.2
CC(=O)Nc1cccc(-n2c(=O)n(C3CC3)c(=O)c3c(Nc4ccc(I)cc4F)n(C)c(=O)c(C)c32)c1 + COc1cc2nc(C)nc(NC(C)c3cc(N)cc(C(F)(F)F)c3)c2cc1OC1CCOC1	KRAS PDC multicell spheroid viability	75.3
CC(=O)Nc1cccc(-n2c(=O)n(C3CC3)c(=O)c3c(Nc4ccc(I)cc4F)n(C)c(=O)c(C)c32)c1 + CC1OCC2(CCN(c3cnc(Sc4ccnc(N)c4Cl)c(N)n3)CC2)C1N	KRAS PDC multicell spheroid viability	77.2
Cn1ncnc1[C@H]1c2n[nH]c(=O)c3cc(F)cc(c23)N[C@@H]1c1ccc(F)cc1 + C=CC(=O)N1CCN(c2nc(OCC3CCCN3C)nc3c2CCN(c2cccc4cccc(C)c24)C3)CC1CC#N	KRAS PDC multicell spheroid viability	89.9

With those in mind, consider the next compound.
Param request: viability, T/C | system KRAS PDC multicell spheroid viability | item Cn1ncnc1[C@H]1c2n[nH]c(=O)c3cc(F)cc(c23)N[C@@H]1c1ccc(F)cc1 + COc1cc2nc(C)nc(NC(C)c3cc(N)cc(C(F)(F)F)c3)c2cc1OC1CCOC1
92.6

* * *

The following compounds are shown together with reported viability, T/C values.
System: KRAS PDC multicell spheroid viability
Assay: Anticancer human tumor 521955-158-R6-J3-PDC cell line growth inhibition [KRAS2];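 note: drug exposure lasted seven days; 100% = DMSO vehicle wells and lower means fewer viable cells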
Conditions: second compound 1 µM; first compound 1 µM; active compounds read low
Description: Multicellular complex tumor spheroid response to RAS pathway inhibitors in combination with a targeted agents in patient-derived cell lines with oncogenic KRAS variants from multiple cancer types A high-throughput screen of multi-cell type tumor spheroids was designed to identify active combinations of targeted small molecules and KRAS pathway inhibitors. […] Compounds. […] If the clinical Cmax for an agent had not been determined, the highest concentration tested was 10 microM. […]
Provide the reading as a plain figure in %.

Compound	Target or system	Endpoint unit	viability, T/C
O=C(c1cc(Cc2n[nH]c(=O)c3ccccc23)ccc1F)N1CCN(C(=O)C2CC2)CC1 + CC1OCC2(CCN(c3cnc(Sc4ccnc(N)c4Cl)c(N)n3)CC2)C1N	KRAS PDC multicell spheroid viability	%	76

Give viability, T/C for the following compound: CC(C)NCC(C(=O)N1CCN(c2ncnc3c2C(C)CC3O)CC1)c1ccc(Cl)cc1 (stereo not given) + C=CC(=O)N1CCN(c2nc(OCC3CCCN3C)nc3c2CCN(c2cccc4cccc(C)c24)C3)CC1CC#N
58.9

Give viability, T/C for the following compound: CC1OCC2(CCN(c3cnc(Sc4ccnc(N)c4Cl)c(N)n3)CC2)C1N (stereo not given) + C=CC(=O)N1CCN(c2nc(OCC3CCCN3C)nc3c2CCN(c2cccc4cccc(C)c24)C3)CC1CC#N
67.4

Give viability, T/C for the following compound: COc1cc(Nc2ncc3c(n2)-c2ccc(Cl)cc2C(c2c(F)cccc2OC)=NC3)ccc1C(=O)O + CC1OCC2(CCN(c3cnc(Sc4ccnc(N)c4Cl)c(N)n3)CC2)C1N
91.7

Give viability, T/C for the following compound: CCNC(=O)CC1N=C(c2ccc(Cl)cc2)c2cc(OC)ccc2-n2c(C)nnc21 (stereo not given) + CC1OCC2(CCN(c3cnc(Sc4ccnc(N)c4Cl)c(N)n3)CC2)C1N
65.9

* * *

The following molecules are shown together with reported viability, T/C values.
Tested on: KRAS PDC multicell spheroid viability
Test: Anticancer human tumor 521955-158-R6-J3-PDC cell line growth inhibition [KRAS2];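 note: drug exposure lasted seven days; 100% = DMSO vehicle wells and lower means fewer viable cells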
Conditions: second compound 0.1 µM; first compound 1 µM; active compounds read low

Molecule	viability, T/C
CC(=O)OC12COC1CC(O)C1(C)C(=O)C(O)C3=C(C)C(OC(=O)C(O)C(NC(=O)OC(C)(C)C)c4ccccc4)CC(O)(C(OC(=O)c4ccccc4)C21)C3(C)C (centres undefined) + CC1OCC2(CCN(c3cnc(Sc4ccnc(N)c4Cl)c(N)n3)CC2)C1N	95.5%

Give viability, T/C for the following molecule: CCN1CCN(Cc2ccc(Nc3ncc(F)c(-c4cc(F)c5nc(C)n(C(C)C)c5c4)n3)nc2)CC1 + COc1cc2nc(C)nc(NC(C)c3cc(N)cc(C(F)(F)F)c3)c2cc1OC1CCOC1
101%

Give viability, T/C for the following molecule: CC1(C)CCC(CN2CCN(c3ccc(C(=O)NS(=O)(=O)c4ccc(NCC5CCOCC5)c([N+](=O)[O-])c4)c(Oc4cnc5[nH]ccc5c4)c3)CC2)=C(c2ccc(Cl)cc2)C1 + C=CC(=O)N1CCN(c2nc(OCC3CCCN3C)nc3c2CCN(c2cccc4cccc(C)c24)C3)CC1CC#N
91.9%

Give viability, T/C for the following molecule: CC(C)NCC(C(=O)N1CCN(c2ncnc3c2C(C)CC3O)CC1)c1ccc(Cl)cc1 (centres undefined) + C=CC(=O)N1CCN(c2nc(=O)n(-c3c(C)ccnc3C(C)C)c3nc(-c4c(O)cccc4F)c(F)cc23)C(C)C1
76.2%

Give viability, T/C for the following molecule: CC1(C)CCC(CN2CCN(c3ccc(C(=O)NS(=O)(=O)c4ccc(NCC5CCOCC5)c([N+](=O)[O-])c4)c(Oc4cnc5[nH]ccc5c4)c3)CC2)=C(c2ccc(Cl)cc2)C1 + COc1cc2nc(C)nc(NC(C)c3cc(N)cc(C(F)(F)F)c3)c2cc1OC1CCOC1
107%

Give viability, T/C for the following molecule: CC(C)NCC(C(=O)N1CCN(c2ncnc3c2C(C)CC3O)CC1)c1ccc(Cl)cc1 (centres undefined) + CNCc1ccccc1-c1csc(C(C)Nc2nc(C)nc3cc(OC)c(OC)cc23)c1
69.8%

Give viability, T/C for the following molecule: CC(=O)OC12COC1CC(O)C1(C)C(=O)C(O)C3=C(C)C(OC(=O)C(O)C(NC(=O)OC(C)(C)C)c4ccccc4)CC(O)(C(OC(=O)c4ccccc4)C21)C3(C)C (centres undefined) + CNCc1ccccc1-c1csc(C(C)Nc2nc(C)nc3cc(OC)c(OC)cc23)c1
85.6%

Give viability, T/C for the following molecule: CC1OCC2(CCN(c3cnc(Sc4ccnc(N)c4Cl)c(N)n3)CC2)C1N (centres undefined) + C=CC(=O)N1CCN(c2nc(OCC3CCCN3C)nc3c2CCN(c2cccc4cccc(C)c24)C3)CC1CC#N
86.1%

Give viability, T/C for the following molecule: COc1cc2nccc(Oc3ccc(NC(=O)C4(C(=O)Nc5ccc(F)cc5)CC4)cc3)c2cc1OC + C=CC(=O)N1CCN(c2nc(=O)n(-c3c(C)ccnc3C(C)C)c3nc(-c4c(O)cccc4F)c(F)cc23)C(C)C1
98.1%

Give viability, T/C for the following molecule: CCNC(=O)CC1N=C(c2ccc(Cl)cc2)c2cc(OC)ccc2-n2c(C)nnc21 (centres undefined) + COc1cc2nc(C)nc(NC(C)c3cc(N)cc(C(F)(F)F)c3)c2cc1OC1CCOC1
75.2%

* * *

Test system: KRAS PDC multicell spheroid viability
Assay: Anticancer human tumor 521955-158-R6-J3-PDC cell line growth inhibition [KRAS2];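 note: drug exposure lasted seven days; 100% = DMSO vehicle wells and lower means fewer viable cells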
Conditions: second compound 3.16 µM; first compound 10 µM; active compounds read low
Recorded metric: viability, T/C (%)
Provide the reading as a plain figure in %.

Compound	viability, T/C (%)
COC(=O)c1ccc2c(C(=Nc3ccc(N(C)C(=O)CN4CCN(C)CC4)cc3)c3ccccc3)c(O)[nH]c2c1 + CC1OCC2(CCN(c3cnc(Sc4ccnc(N)c4Cl)c(N)n3)CC2)C1N	0.29
COC(=O)c1ccc2c(C(=Nc3ccc(N(C)C(=O)CN4CCN(C)CC4)cc3)c3ccccc3)c(O)[nH]c2c1 + COc1cc2nc(C)nc(NC(C)c3cc(N)cc(C(F)(F)F)c3)c2cc1OC1CCOC1	0.15

With those in mind, consider the next compound.
Give viability, T/C for the following compound: COC(=O)c1ccc2c(C(=Nc3ccc(N(C)C(=O)CN4CCN(C)CC4)cc3)c3ccccc3)c(O)[nH]c2c1 + CNCc1ccccc1-c1csc(C(C)Nc2nc(C)nc3cc(OC)c(OC)cc23)c1
1.34

* * *

System: KRAS PDC multicell spheroid viability
Test: Anticancer human tumor 521955-158-R6-J3-PDC cell line growth inhibition [KRAS2]; active = viability on the fitted dose curve at most 10% of control; inactive = the rest;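 note: drug exposure lasted seven days; 100% = DMSO vehicle wells and lower means fewer viable cells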
Settings: second compound 10 µM; first compound 0.01 µM
Answer with one of the outcomes given here: active, inactive

Compound	Target or system	Category
CC(C)n1nc(-c2ccc3oc(N)nc3c2)c2c(N)ncnc21 + CNCc1ccccc1-c1csc(C(C)Nc2nc(C)nc3cc(OC)c(OC)cc23)c1	KRAS PDC multicell spheroid viability	active
CC(=O)Nc1cccc(-n2c(=O)n(C3CC3)c(=O)c3c(Nc4ccc(I)cc4F)n(C)c(=O)c(C)c32)c1 + C=CC(=O)N1CCN(c2nc(=O)n(-c3c(C)ccnc3C(C)C)c3nc(-c4c(O)cccc4F)c(F)cc23)C(C)C1	KRAS PDC multicell spheroid viability	inactive
CCN1CCN(Cc2ccc(Nc3ncc(F)c(-c4cc(F)c5nc(C)n(C(C)C)c5c4)n3)nc2)CC1 + CC1OCC2(CCN(c3cnc(Sc4ccnc(N)c4Cl)c(N)n3)CC2)C1N	KRAS PDC multicell spheroid viability	inactive

Recorded test call requested for CC(=O)OC12COC1CC(O)C1(C)C(=O)C(O)C3=C(C)C(OC(=O)C(O)C(NC(=O)OC(C)(C)C)c4ccccc4)CC(O)(C(OC(=O)c4ccccc4)C21)C3(C)C (stereo not given) + C=CC(=O)N1CCN(c2nc(=O)n(-c3c(C)ccnc3C(C)C)c3nc(-c4c(O)cccc4F)c(F)cc23)C(C)C1
inactive

Recorded test call requested for CN(C)C/C=C/C(=O)Nc1cc2c(Nc3ccc(F)c(Cl)c3)ncnc2cc1O[C@H]1CCOC1 + CNCc1ccccc1-c1csc(C(C)Nc2nc(C)nc3cc(OC)c(OC)cc23)c1
active
